Data origin, for the record: patent US20220403048A1

SYSTEM: T1, biotinylated recombinant human trimeric ARG2 enzyme (Avi-huARG2-His10) (human, UniProt P78540 23-354, biotinylated)
T1 construct: also called avi-Arg2-His10; bio-ARG2
T1 chain: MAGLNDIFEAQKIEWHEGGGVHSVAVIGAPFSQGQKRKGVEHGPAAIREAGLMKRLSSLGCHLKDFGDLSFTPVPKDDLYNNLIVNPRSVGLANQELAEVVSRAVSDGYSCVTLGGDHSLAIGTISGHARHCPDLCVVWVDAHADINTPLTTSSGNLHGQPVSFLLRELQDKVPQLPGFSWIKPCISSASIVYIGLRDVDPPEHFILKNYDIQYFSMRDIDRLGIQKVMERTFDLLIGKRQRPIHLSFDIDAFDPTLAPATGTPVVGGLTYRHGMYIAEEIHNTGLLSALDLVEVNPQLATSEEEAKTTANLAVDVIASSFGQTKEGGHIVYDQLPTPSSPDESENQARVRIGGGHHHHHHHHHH
RUN_DESCRIPTION: BLI (OctetRED), biotinylated ARG2 on streptavidin, Fab as analyte
Method: An Octet Kinetics Buffer (PBS containing 0.01% BSA and 0.002% Tween20) is typically used as the diluent buffer for the analyte samples and as the flow buffer during the dissociation phase. The experimental data is recorded over time as shift in interference pattern (nm) over time, which is directly proportional to the optical thickness at the biosensor tip, which in turn is an approximate measure of the mass of analyte bound. […]
Entries whose Kd is below 3 nM take 1.0; entries at or above 3 nM take 0.0.

Solved cases (5 shown):
Task item: Quick check: Kd of C0021139 Fab (Fab, V domains shown, Human Fab; also called LO C0021139 Fab) VH: EVQLLESGGGLVQPGGSLRLSCAASGFTFQYDYQVWVRQAPGKGLEWVSAISGSGGSTYYADSVKGRFTISRDNSKNTLYLQMNSLRAEDTAVYYCARLRADLGLYMDLWGRGTLVTVSS VL: QSVLTQPPSVSAAPGQKVTISCSGSSSNIGNHYVSWYQQLPGTAPKLLIYDNSERTSGIPDRFSGSKSGTSATLGITGLQTGDEADYYCGTWDELTSNLVFGGGTKLTVL under 3 nM?
Reply: 0.0

Task item: Ok, now C0021142 Fab (Fab, V domains shown, Human Fab) VH: EVQLLESGGGLVQPGGSLRLSCAASGFTFSSYAMSWVRQAPGKGLEWVSAHTHSPGSTYYADSVKGRFTISRDNSKNTLYLQMNSLRAEDTAVYYCARLRADLGLYMDLWGRGTLVTVSS VL: QSVLTQPPSVSAAPGQKVTISCSGSSSNIGNHYVSWYQQLPGTAPKLLIYDNSERPSGIPDRFSGSKSGTSATLGITGLQTGDEADYYCGTWDSSLSALVFGGGTKLTVL
Reply: 1.0

Task item: Ok, now C0021061 Fab (Fab, V domains shown, Human Fab) VH: EVQLLESGGGLVQPGGSLRLSCAASGFTFSSYAMSWVRQAPGKGLEWVSAKPTDAGSTYYADSVKGRFTISRDNSKNTLYLQMNSLRAEDTAVYYCARLRADLGLYMDLWGRGTLVTVSS VL: QSVLTQPPSVSAAPGQKVTISCSGSSSNIGNHYVSWYQQLPGTAPKLLIYNTVYPKSGIPDRFSGSKSGTSATLGITGLQTGDEADYYCGTWDSSLSALVFGGGTKLTVL
Reply: 1.0

Task item: Ok, now C0021021 Fab (Fab, V domains shown, Human Fab) VH: EVQLLESGGGLVQPGGSLRLSCAASGFTFSSYAMSWVRQAPGKGLEWVSSILFSPGSTYYADSVKGRFTISRDNSKNTLYLQMNSLRAEDTAVYYCARLRADLGLYMDLWGRGTLVTVSS VL: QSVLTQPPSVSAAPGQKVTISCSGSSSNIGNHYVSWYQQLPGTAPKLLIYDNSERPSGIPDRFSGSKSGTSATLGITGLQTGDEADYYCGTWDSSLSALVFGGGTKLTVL
Reply: 0.0

Task item: Ok, now C0021065 Fab (Fab, V domains shown, Human Fab) VH: EVQLLESGGGLVQPGGSLRLSCAASGFTFSSYAMSWVRQAPGKGPEWVSAISGFSPYYADSVKGRFTISRDNSRNTLYLQMNSLRAEDTAVYYCARLRADLGLYMDLWGRGTLVTVSS VL: QSVLTQPPSVSAAPGQKVTISCSGSSSNIGNHYVSWYQQLPGTAPKLLIYDTDHMASGIPDRFSGSKSGTSATLGITGLQTGDEADYYCGTWDSSLSALVFGGGTKLTVL
Reply: 1.0

More entries:
Task item: Quick check: Kd of C0021096 Fab (Fab, V domains shown, Human Fab) VH: EVQLLESGGGLVQPGGSLRLSCAASGFTFSSYAMSWVRQAPGKGLEWVSAISGYSGYYADSVKGRFTISRDNSKNTLYLQMNSLRAEDTAVYYCARLRADLGLYMDLWGRGTLVTVSS VL: QSVLTQPPSVSAAPGQKVTISCSGSSSNIGNHYVSWYQQLPGTAPKLLIYNTERRMSGIPDRFSGSKSGTSATLGITGLQTGDEADYYCGTWDSSLSALVFGGGTKLTVL under 3 nM?
Reply: 0.0

Task item: Ok, now C0021141 Fab (Fab, V domains shown, Human Fab) VH: EVQLLESGGGLVQPGGSLRLSCAASGFTFYPDPQGWVRQAPGKGLEWVSAYGYGIGSTYYADSVKGRFTISRDNSKNTLYLQMNSLRAEDTAVYYCARLRADLGLYMDLWGRGTLVTVSS VL: QSVLTQPPSVSAAPGQEVTISCSGSSSNIDNHYVSWYQQLPGTAPKLLIYDNSERPSGIPDRFSGSKSGTSATLGITGLQTGDEADYYCGTWDSSLSALVFGGGTKLTVL
Reply: 0.0
